Listed here: items and their measured Population Tubulin-Different-Phenotype (%).
test system: U2OS; assay: Multiplex assay against U2OS; assay type: toxicity, cell-based; conditions: human, 24 h, 10 µM, compound concentration 10 uM, replicate 2
Please reply with the bare figure in % and do not write the unit itself.

Here is how some compounds turned out for Population Tubulin-Different-Phenotype (%).
Cl.N=C(N)NC(=O)Cc1c(Cl)cccc1Cl [GUANFACINE HYDROCHLORIDE] = 5
C[C@H](N)COC(=O)[C@@H](CCCCN)NC(=O)Cc1c(-c2ccc3ccccc3c2)[nH]c2c1ccc1ccccc12 = 6
CCCOc1ccc2[nH]cc(C3=CCNCC3)c2n1.Cl = 4
O=C1[C@H](Cc2ccc(O)cc2)N2C(=O)CCN(C(=O)NCc3ccccc3)[C@H]2CN1Cc1cccc2ccccc12 = 42

Q) Recall and state the measured Population Tubulin-Different-Phenotype (%) for CCCCC(=O)N(Cc1ccc(-c2ccccc2-c2nnn[nH]2)cc1)[C@H](C(=O)O)C(C)C .
A) 6

###

tested on: HEK-293T; assay: Multiplex assay against HEK293T; type: toxicity, cell-based; conditions: human, 24 h, 1 µM, compound concentration 1 uM, replicate 2
Listed here: items and their measured Population Tubulin-Different-Phenotype (%).
Please reply with the bare figure in % and do not write the unit itself.

Cc1cccc(NC(=O)CN2CCC(c3ccccn3)CC2)c1.Cl.Cl = 18

Q) Recall and state the measured Population Tubulin-Different-Phenotype (%) for O=C(CCCc1ccccc1)Nc1nc2ccccc2c(=O)s1 .
A) 13

Q) Recall and state the measured Population Tubulin-Different-Phenotype (%) for CC(C)(C)c1cc(NC(=O)Nc2ccc(-c3cn4c(n3)sc3cc(OCCN5CCOCC5)ccc34)cc2)no1 .
A) 17

Q) Recall and state the measured Population Tubulin-Different-Phenotype (%) for CN(C)C(=O)Cn1cc(-c2ccc(-c3cncc4ccccc34)cc2)cn1 .
A) 23

Q) Recall and state the measured Population Tubulin-Different-Phenotype (%) for Cc1c(CC(=O)O)c2cccnc2n1Cc1ccc(S(C)(=O)=O)cc1C(F)(F)F .
A) 14

Q) Recall and state the measured Population Tubulin-Different-Phenotype (%) for N#Cc1cc(F)cc(-c2nc(-c3ccc(F)cn3)no2)c1 .
A) 15

Q) Recall and state the measured Population Tubulin-Different-Phenotype (%) for CC[C@@H](C)Nc1nc(C)nc2c(-c3ccc(OC)nc3C)c(C)nn12 .
A) 15

Q) Recall and state the measured Population Tubulin-Different-Phenotype (%) for CC(=O)Nc1cccc2c1c(Sc1ccc(Cl)cc1)c(C)n2CC(=O)O .
A) 16

###

Listed here: items and their measured Population Normal (%).
test system: HEK-293T; assay: Multiplex assay against HEK293T; assay type: toxicity, cell-based; details: human, 24 h, 10 µM, compound concentration 10 uM, replicate 2

Here is how some compounds turned out for Population Normal (%).
N#Cc1cc(F)cc(-c2nc(-c3ccc(F)cn3)no2)c1 = 91%
Cc1c(CC(=O)O)c2cccnc2n1Cc1ccc(S(C)(=O)=O)cc1C(F)(F)F [FEVIPIPRANT] = 88%
CCc1cc2cc(NS(=O)(=O)c3ccc(C#N)cc3)ccc2n(CC)c1=O = 82%
CCCCC(=O)N(Cc1ccc(-c2ccccc2-c2nnn[nH]2)cc1)[C@H](C(=O)O)C(C)C = 92%
COc1ccccc1N1CCN(C[C@@H](C(=O)NC(C)(C)C)c2ccccc2)CC1.Cl.Cl = 85%
CN1CCN(c2cc(-c3ccccc3)nc(N)n2)CC1 = 90%
Cc1onc(-c2ccccc2Cl)c1C(=O)N(C)c1ccc(Cl)cc1 = 96%
CCCCC1=NC2(CCCC2)C(=O)N1Cc1ccc(-c2ccccc2-c2nnn[nH]2)cc1 [IRBESARTAN] = 89%

Q) Give Population Normal (%) for this entry on HEK-293T: Cc1noc(-c2ccc(-c3ccc(CC(=O)O)cc3)cc2)c1NC(=O)O[C@H](C)c1ccccc1Cl
A) 83%

Q) Give Population Normal (%) for this entry on HEK-293T: CN[C@@H](C)C(=O)N[C@H](C(=O)N1CCC[C@H]1C(=O)Nc1snnc1-c1ccccc1)C1CCCCC1 [GDC-0152]
A) 78%
